The measured values listed here are drawn from ChEMBL document CHEMBL5346954.

solubility by entry:
- test-protocol: Solubility of the compound in PBS at pH 7.4
- Type: physicochemical
property: solubility (µM)

1) Cc1noc(C)c1-c1cc(Cl)c(Nc2cccc(CN3CCCOCC3)c2C(=O)O)c(C(F)(F)F)c1 | 42.6
2) Cc1n[nH]c(C)c1-c1cc(Cl)c(Nc2cccc(CN3CCCOCC3)c2C(=O)O)c(Cl)c1 | 18.1
3) O=C(O)c1c(CN2CCCOCC2)cccc1Nc1c(Cl)cc(-c2nnn[nH]2)cc1Cl | 305
4) Cc1noc(C)c1-c1cc(Cl)c(Nc2cccc(CN3CCCOCC3)c2C(=O)O)c(C2CC2)c1 | 7.6
5) Cc1noc(C)c1-c1cc(F)c(Nc2ccccc2C(=O)O)c(Cl)c1 | 275

###

- test-protocol: AUC(0 to t) in ICR mouse at 1 mg/kg, iv measured upto 24 hrs by LC-MS/MS analysis
- Format: ADME, organism-based
- Design: time < 24 hrs, dose 1 mg/kg, route iv
- measurement-parameters: in vivo
property: AUC(0-t) at 24 h (ng·h/mL)

1) Cc1noc(C)c1-c1cc(Cl)c(Nc2cccc(CN3CCCOCC3)c2C(=O)O)c(C2CC2)c1 | 46200
2) Cc1noc(C)c1-c1cc(F)c(Nc2ccccc2C(=O)O)c(Cl)c1 | 36200

###

IC50 by entry:
- Tested on: NB-4
- test-protocol: Antiproliferative activity against human NB4 cells incubated for 72 hrs by CCK8 assay
- Assay type: functional, cell-based
- measurement-parameters: NB-4, 72 h
property: IC50 (nM)

1. Cc1noc(C)c1-c1cc(Cl)c(Nc2cccc(CN3CCCOCC3)c2C(=O)O)c(C2CC2)c1 | 1500
2. Cc1noc(C)c1-c1cc(F)c(Nc2cccc(CN3CCCOCC3)c2C(=O)O)c(F)c1F | 1000
3. CCc1cc(-c2ccncc2)cc(CC)c1Nc1cccc(CN2CCCOCC2)c1C(=O)O | 1000
4. CCc1cc(-c2ccncc2)cc(CC)c1Nc1cccc(CN2CC(N(C)C)C2)c1C(=O)O | 1000
5. Cc1noc(C)c1-c1c(F)c(F)c(Nc2cccc(CN3CCCOCC3)c2C(=O)O)c(F)c1F | 1000
6. Cc1noc(C)c1-c1cc(Cl)c(Nc2cccc(CN3CCCOCC3)c2C(=O)O)c(C(F)(F)F)c1 | 2300
7. Cc1n[nH]c(C)c1-c1cc(Cl)c(Nc2cccc(CN3CCCOCC3)c2C(=O)O)c(Cl)c1 | 1000
8. CCc1cc(-c2c(C)noc2C)cc(CC)c1Nc1cccc(CN2CCCOCC2)c1C(=O)O | 1000

###

Tmax by entry:
- test-protocol: Tmax in ICR mouse at 10 mg/kg, po measured upto 24 hrs by LC-MS/MS analysis
- Assay type: ADME, organism-based
- measurement-parameters: in vivo
property: Tmax

1. Cc1noc(C)c1-c1cc(F)c(Nc2ccccc2C(=O)O)c(Cl)c1 | 60 min
2. Cc1noc(C)c1-c1cc(Cl)c(Nc2cccc(CN3CCCOCC3)c2C(=O)O)c(C2CC2)c1 | 30 min

###

- test-protocol: AUC(0 to infinity) in ICR mouse at 1 mg/kg, iv measured upto 24 hrs by LC-MS/MS analysis
- Format: ADME, organism-based
- Parameters: dose 1 mg/kg, time < 24 hrs, route iv
- measurement-parameters: in vivo
AUC(0-inf) by entry:
property: AUC(0-inf)

1. Cc1noc(C)c1-c1cc(Cl)c(Nc2cccc(CN3CCCOCC3)c2C(=O)O)c(C2CC2)c1 | 55600 ng·h/mL
2. Cc1noc(C)c1-c1cc(F)c(Nc2ccccc2C(=O)O)c(Cl)c1 | 39200 ng·h/mL
